- assayNotes: NCI Yeast Anticancer Drug Screen. Data for the bub3 strain (AID 167)
- conditionDescription: S. cerevisiae bub3 mutant strain, at 5.0 µM (retest, dose inferred, filed as 0.5), active compounds read high
This is part of a sample that, as a whole, favours compounds with a hit. Of some 79,000 tested, about 15% had one in any assay.
assayEndpoint: growth inhibition (%)
Answers are plain numbers, in %.

# example entries with known answers
compound	growth inhibition (%)
O=c1[nH]c2c([N+](=O)[O-])cc(Cl)cc2nc1/C=C(\O)c1ccccn1	14
COc1ccc(CN2COc3c(cc(Cl)c4cccnc34)C2)cc1	-2
CCCCN(CCCC)CC(O)c1cc(-c2ccc(Cl)cc2)nc2cc(C)ccc12 (stereo not given)	6
CC(C)c1ccc(C(=O)C2CC2)cc1	-29
CCOC(=O)C(NNc1ccccc1)C(c1ccccc1)[P+](c1ccccc1)(c1ccccc1)c1ccccc1 (stereo not given)	91
O=S1(=O)C(C(O)(c2ccccc2)c2ccccc2)CCCN1c1ccccc1 (stereo not given)	0

Hi there! I need growth inhibition for each item below, if you can.
1. Cc1cc(C(=O)CBr)c(CN2C(=O)c3ccccc3C2=O)c(=O)n1C
2. CC(/C=C1\C(=O)N(C)C(CC(C)C(Cl)(Cl)Cl)C(=O)N1C)C(Cl)(Cl)Cl (stereo not given)
3. CC(=O)OC1CCC2(C)C3CCC4(C)C(CCC4(Br)C(=O)CBr)C3CC(Br)C2(Br)C1 (stereo not given)
4. COc1cc(/C=C/C(=O)c2ccc(O)c(OC)c2)ccc1O

[18, 28, -3, 17]

* * *

- assayNotes: NCI Yeast Anticancer Drug Screen. Data for the mlh1 rad18 strain (AID 175)
- conditionDescription: S. cerevisiae mlh1 rad18 strain growth inhibition; at 50.0 µM (retest, dose inferred, filed as 5.0)
Compounds without any hit were thinned out: in the full panel of roughly 79,000, 15% have a hit. The source made the active and inactive calls. No stated cut-off is given here; in the data, active means growth inhibition above about 70%; inactive means the rest.
Just give me one of these, please: active, inactive

Example entries begin here.
compound	classLabel
CC(CC(C)[C@H]1CCC2[C@H]3C(CC[C@@]21C)[C@@]1(C)CCC(O)C[C@H]1C[C@@H]3O)C(=O)O (some centres not stated)	active
CN(Cc1cc(Cl)cc(Cl)c1)CC(C(=O)c1ccccc1)c1ccccc1 (configuration not stated)	active
O=Cc1cc2c(s1)C(=O)c1sccc1C2=O	active
CC(C)C12CCC3(CCC4C(C)(C(=O)O)CCCC4(C)C3C1)C(CN)C2 (configuration not stated)	active

What did this assay record as the result for `Cc1nc(Cl)c(C#N)c(C)c1[N+](=O)[O-]` ?
active

Now give it for `COC(=O)c1nc(=S)[nH]c(C(=O)OC)c1C(=O)c1ccc([N+](=O)[O-])cc1` too.
active

Now give it for `CCCC(=S)N1CCOCC1` too.
inactive

Now give it for `CCc1cc(CC)c(-c2ccco2)c(COC(=O)NC)c1` too.
active

Now give it for `COc1ccc(C2C(C#N)(C#N)C2(C#N)C#N)cc1` too.
active

Now give it for `NCCC1=CCCCC1` too.
active

Now give it for `CCOC(=O)Oc1ccc(C)cc1[N+](=O)[O-]` too.
inactive

Now give it for O=C(O)C1C2CC3CC(C2)CC1C3 (configuration not stated) too.
active

* * *

- assayNotes: NCI Yeast Anticancer Drug Screen. Data for the mec2-1 strain (AID 157)
- conditionDescription: S. cerevisiae mec2-1 strain, at 5.0 µM (retest, dose inferred, filed as 0.5)
The panel holds about 79,000 compounds, 15% with a hit somewhere; the sample as a whole holds those more often. Activity calls are given as the source filed them. No stated cut-off is given here; in the data, active means growth inhibition above about 70%; inactive means the rest.
Just give me one of these, please: 1 = active, -1 = inactive

compound	classLabel
Clc1ccc(COC(CN2CCOCC2)c2ccccc2)c(Cl)c1 (stereo not given)	-1
COP(=O)(OC)OCC1OC(n2cnc3c(N)ncnc32)C(O)C1O (stereo not given)	-1
CN(C)CCOC(=O)C1(CCC2CCCCC2)CCCCC1	-1
O=C1c2cc(Br)cc(Br)c2NCCC1(Br)Br	1
CCN(CC)c1ccc(NC(C(=O)c2ccc(Cl)cc2)c2ccc(Cl)cc2)cc1 (stereo not given)	-1

What did this assay record as the result for `O=c1[nH]c2c([N+](=O)[O-])cc(Cl)cc2nc1/C=C(\O)c1ccccn1` ?
-1

* * *

- assayNotes: NCI Yeast Anticancer Drug Screen. Data for the mlh1 rad18 strain (AID 175)
- conditionDescription: S. cerevisiae mlh1 rad18 strain growth inhibition; at 5.0 µM (retest, dose inferred, filed as 0.5)
This is part of a sample that, as a whole, favours compounds with a hit. Of some 79,000 tested, about 15% had one in any assay. Calls of active or inactive are those of the source. No stated cut-off is given here; in the data, active means growth inhibition above about 70%; inactive means the rest.
Just give me one of these, please: true (active), false (inactive)

molecule	classLabel
COc1ccc(C2(O)c3ccccc3C(=O)C2c2ccccn2)cc1 (stereo not given)	true
C/C(=N/NC(=O)C[n+]1ccccc1)C(CN(CC(C)C)CC(C)C)C(=O)Nc1ccc(C)cc1C (stereo not given)	false
COC(=O)c1nc(=S)[nH]c(C(=O)OC)c1C(=O)c1ccc(O)c(OC)c1	false
C/C=C/c1cc2c(cc1O)CC[C@@H]1[C@@H]2CC[C@]2(C)[C@@H](O)CC[C@@H]12	false
O=C1N=c2ccc(Br)cc2=C1c1sc(=O)n(Cc2nc3ccccc3[nH]2)c1O	false
CCOC(=O)C(NC(=O)c1ccccc1)[CH](c1ccc(OC)cc1)[Sn]([c]1ccccc1)([c]1ccccc1)[c]1ccccc1 (stereo not given)	false
NCC(O)CSc1ccc(Cl)c(Cl)c1 (stereo not given)	false
O=C1C(c2ccccc2)=[N+]([O-])c2cc([N+](=O)[O-])c(/C(Cl)=C/c3ccccc3)cc21	false

What did this assay record as the result for CC1(C)CC(=O)C(C(c2ccc3c(c2)OCO3)N2CCOCC2)C(=O)C1 (stereo not given) ?
false

Now give it for `Cn1cnc(=S)c2[nH]cnc21` too.
false

* * *

- assayNotes: NCI Yeast Anticancer Drug Screen. Data for the cln2 rad14 strain (AID 165);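 note: 0% = growth equal to vehicle treated cultures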
- conditionDescription: S. cerevisiae cln2 rad14 strain, at 5.0 µM (retest, dose inferred, filed as 0.5), active compounds read high
The panel holds about 79,000 compounds, 15% with a hit somewhere; the sample as a whole holds those more often.
Provide the reported growth inhibition of each item.
Give bare numbers, in %.

# example entries with known answers
compound	measureUnit	quantitativeResult
c1ccc(C(CNCCN2CCCCCC2)C2CCCCC2)cc1 (centres undefined)	%	10
CCN(CC)CC(O)CNc1cc(C)nc(/N=C(\N)Nc2ccc(Cl)c(Cl)c2)n1 (centres undefined)	%	-3
Cc1nc(C)c(C(=O)NNC(=O)C[N+](C)(C)C)cc1C(=O)NNC(=O)C[N+](C)(C)C	%	-2
CCOC(=O)CSc1c(C(=O)OCC)c(=O)n(-c2ccccc2)c(=S)n1-c1ccccc1	%	54
CC(=O)O[C@@H]1c2c(c3c(=O)c4cccc(O)c4c(=O)c=3c2=[N+]=[N-])[C@H](OC(C)=O)[C@@H](OC(C)=O)[C@]1(C)O	%	99
CN(C)CCCNc1c2ccccc2nc2ccc(F)cc12	%	8
CC(=O)OC/C=C/CCCOC(C)=O	%	38
Clc1ccc2ccc3cccnc3c2n1	%	-4

Now turn to the next compound.
Entry under review: CC1(C)OC(C(COC(=O)c2ccc([N+](=O)[O-])cc2)OS(=O)(=O)c2ccc([N+](=O)[O-])cc2)C(C(SCc2ccccc2)SCc2ccccc2)O1 (centres undefined) . Reported growth inhibition?
-9

* * *

- assayNotes: NCI Yeast Anticancer Drug Screen. Data for the sgs1 mgt1 strain (AID 161);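 note: 0% = growth of cultures given vehicle only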
- conditionDescription: S. cerevisiae sgs1 mgt1 strain, at 50.0 µM (retest, dose inferred, filed as 5.0)
About 79,000 compounds went through this panel and 15% of them were active in at least one assay; those are over-represented in the sample as a whole. Calls of active or inactive are those of the source. Rule as the data show it: active = growth inhibition above about 70%; inactive = the rest. *1 amine or outer side, *2 acyl side, *3 side chain or, on linkers, in order; H or OH if unused. Where a SMILES comes first, the peptide text is derived from it. Bridges are numbered along the chain shown (N, C = ends). Roman numbers before positions name the chains, in order. [ ]: non-standard residue; d: D form. Actinocin(9to1) = Cc1c2oc3c(C)ccc(C(=O)[*:1])c3nc-2c(C(=O)[*:2])c(N)c1=O; NMeV = CN[CH](C(=O)O)C(C)C; Pip = O=C(O)[CH]1CCCCN1; Sar = CNCC(=O)O
Just give me one of these, please: T = active, F = inactive

compound	classLabel
COC(=O)CC1c2cc(OC)c3cccc(OC)c3c2CCC1(C)C(=O)OC (stereo not drawn)	T

What did this assay record as the result for `N#CCN1CCCCCc2ccccc21` ?
F

Now give it for O=C(C1=NNC(c2ccccc2)C1C(=O)c1ccccc1)c1ccccc1 (stereo not drawn) too.
T

Now give it for `COc1cc2c(cc1OC)[C@H]1C(=O)c3cc4c(cc3[C@H]1N(C)C2=O)OCO4` too.
F

Now give it for C=CCCCN1C(=O)C2C3c4ccccc4C(C=O)(c4ccccc43)C2C1=O (stereo not drawn) too.
F

Now give it for COC(=O)C1(Cc2ccc3c(c2)CCC3)Cc2ccc3c(c2C1O)CCC3 (stereo not drawn) too.
T

Now give it for `C#CCCCCCOC(=O)c1cc([N+](=O)[O-])cc([N+](=O)[O-])c1` too.
T

Now give it for Cc1c2oc3c(C)ccc(C(=O)NC4C(=O)NC(C(C)C)C(=O)N5CCCCC5C(=O)N(C)CC(=O)N(C)C(C(C)C)C(=O)OC4C)c3nc-2c(C(=O)NC2C(=O)NC(C(C)C)C(=O)N3CCCCC3C(=O)N(C)CC(=O)N(C)C(C(C)C)C(=O)OC2C)c(N)c1=O (stereo not drawn) (I: TV[Pip][Sar][NMeV] / II: TV[Pip][Sar][NMeV]; ester I:1-I:C, II:1-II:C; linker I:N-II:N via Actinocin(9to1); configuration not given here) too.
F
